# Subject of test: human mGlu4 receptor (Homo sapiens, UniProt Q14833)
# Construct: expressed in transfected cells; host or cells: monoclonal HEK-293 cell line, stably transfected
# Sequence (Q14833 33-912): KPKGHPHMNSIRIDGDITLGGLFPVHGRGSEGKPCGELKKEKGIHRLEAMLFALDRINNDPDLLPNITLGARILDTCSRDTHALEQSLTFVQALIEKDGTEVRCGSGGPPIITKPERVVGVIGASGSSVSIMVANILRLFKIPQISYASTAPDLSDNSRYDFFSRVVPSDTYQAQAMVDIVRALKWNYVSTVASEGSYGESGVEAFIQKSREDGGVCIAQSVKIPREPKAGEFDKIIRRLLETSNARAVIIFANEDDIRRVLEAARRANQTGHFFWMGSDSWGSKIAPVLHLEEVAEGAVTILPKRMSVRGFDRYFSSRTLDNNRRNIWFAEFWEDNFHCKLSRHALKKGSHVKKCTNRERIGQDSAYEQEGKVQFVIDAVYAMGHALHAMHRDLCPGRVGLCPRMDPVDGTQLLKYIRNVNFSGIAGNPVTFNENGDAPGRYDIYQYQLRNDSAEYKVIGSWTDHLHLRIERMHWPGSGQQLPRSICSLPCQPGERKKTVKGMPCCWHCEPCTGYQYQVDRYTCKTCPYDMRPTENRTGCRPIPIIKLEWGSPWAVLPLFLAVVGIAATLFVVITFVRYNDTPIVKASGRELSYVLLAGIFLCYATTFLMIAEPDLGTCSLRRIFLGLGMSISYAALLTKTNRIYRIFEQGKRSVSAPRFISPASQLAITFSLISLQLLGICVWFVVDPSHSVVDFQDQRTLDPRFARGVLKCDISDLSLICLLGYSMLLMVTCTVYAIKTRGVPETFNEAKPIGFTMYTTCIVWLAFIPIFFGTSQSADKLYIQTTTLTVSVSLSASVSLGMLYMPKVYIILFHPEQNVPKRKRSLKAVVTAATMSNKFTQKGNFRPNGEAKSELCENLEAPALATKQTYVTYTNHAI
# Measurement protocol: Ca2+ mobilization in vitro assay on recombinant human mGlu4 expressed in HEK293 cells (PAM, L-AP4 at EC20)
# Format: cell-based
# Details: HEK293 cells expressing human mGlu4; L-AP4 added at EC20
# Protocol: FIG. 1: Illustration of the experimental outline for mGlu4 PAM Ca2+ mobilization screening assay and the determination of EC50 and % Emax values. […] About 24 hrs before an experiment, 5×10^4 cells/well were seeded in poly-D-lysine coated, black/clear-bottomed 96-well plates. […] Responses were measured as peak increase in fluorescence minus basal (i.e. fluorescence without addition of L-AP4), normalized to the maximal stimulatory effect obtained with saturating concentrations of L-AP4. […]
The label is yes (1) for EC50 below 60 nM and no (0) for EC50 equal to or exceeding 60 nM.

Answered examples (5):
CC(C)n1ccc([C@]2(C)CC(=O)N(c3c(F)cc(C#Cc4ccccc4)cc3F)C(=O)N2C)n1 [Example 29] | no (0)
CC[C@@]1(c2ccn(C)n2)CC(=O)N(c2c(F)cc(C#Cc3ccccc3)cc2F)C(=O)N1C [Example 27] | no (0)
CC[C@@]1(c2cnn(C)c2)CC(=O)N(c2c(F)cc(C#Cc3ccccc3)cc2F)C(=O)N1C [Example 18] | yes (1)
CN1C(=O)N(c2c(F)cc(C#Cc3ccccc3)cc2F)C(=O)C[C@@]1(C)c1cncs1 [Example 42] | no (0)
CN1C(=O)N(c2c(F)cc(C#Cc3ccccc3)cc2F)C(=O)C[C@@]1(C)c1ccon1 [Example 40] | yes (1)

Consider the molecule CCn1ccc([C@]2(C)CC(=O)N(c3c(F)cc(C#Cc4ccccc4)cc3F)C(=O)N2C)n1 [Example 28] . Is its EC50 strictly less than 60 nM?
no (0)
